- Test system: Hepatocyte
- measurement description: Inhibition of GO/LDHA in hyperoxaluric-primary hepatocyte isolated from Grhpr-knockdown PH2 C57BL/6 mouse assessed as relative oxalate output at 10 uM measured at 24 hrs in the presence of glycolate relative to control
- Format: cell-based
quantity measured: fold change (FC)
Answer using only a numeral; do not append any unit.

Input line: Fill in reported fold change (FC) for this entry: CCN(CC)CC.O=C(O)c1cc(-c2ccc(CN(Cc3ccccc3)Cc3ccco3)o2)ccc1O
Output line: 0.31

Input line: Fill in reported fold change (FC) for this entry: N.O=C(O)c1cc(-c2ccc(CNc3ccc([N+](=O)[O-])cc3)o2)ccc1O
Output line: 0.6

Input line: Fill in reported fold change (FC) for this entry: N.O=C(O)c1cc(-c2ccc(CNc3ccc(Br)cc3)o2)ccc1O
Output line: 0.41

Input line: Fill in reported fold change (FC) for this entry: C#CCCCC(=O)Nc1ccc(C(=O)c2ccc(NCc3ccc(-c4ccc(O)c(C(=O)O)c4)o3)cc2)cc1.N
Output line: 0.4

Input line: Fill in reported fold change (FC) for this entry: C#CCN(Cc1ccc(-c2ccc(O)c(C(=O)O)c2)o1)Cc1ccc(-c2ccc(O)c(C(=O)O)c2)o1.N.N
Output line: 0.2

Input line: Fill in reported fold change (FC) for this entry: N.N.O=C(O)c1cc(-c2ccc(CN(Cc3ccccc3)Cc3ccc(-c4ccc(O)c(C(=O)O)c4)o3)o2)ccc1O
Output line: 0.59

Input line: Fill in reported fold change (FC) for this entry: CC(C)(C)C(O)/C=C/c1ccc2c(c1)OCO2 (configuration not stated) [STIRIPENTOL]
Output line: 0.27

---

- test target: L-lactate dehydrogenase A chain (Homo sapiens, UniProt P00338)
- measurement description: Inhibition of human recombinant LDHA using pyruvate as substrate preincubated for 10 mins followed by substrate addition and measured every 60 sec for 10 mins in the presence of NADH by fluorescence assay
quantity measured: pIC50
FYI, pIC50 means -log10 of a concentration in mol per litre.

Input line: Retrieve pIC50 on L-lactate dehydrogenase A chain (Homo sapiens, UniProt P00338); query C#CCCCC(=O)Nc1ccc(C(=O)c2ccc(NCc3ccc(-c4ccc(O)c(C(=O)O)c4)o3)cc2)cc1.N
Output line: 6.30

Input line: Retrieve pIC50 on L-lactate dehydrogenase A chain (Homo sapiens, UniProt P00338); query C#CCN(Cc1ccc(-c2ccc(O)c(C(=O)O)c2)o1)Cc1ccc(-c2ccc(O)c(C(=O)O)c2)o1.N.N
Output line: 5.80

Input line: Retrieve pIC50 on L-lactate dehydrogenase A chain (Homo sapiens, UniProt P00338); query N.O=C(O)c1cc(-c2ccc(CNc3ccc(Br)cc3)o2)ccc1O
Output line: 6.22

Input line: Retrieve pIC50 on L-lactate dehydrogenase A chain (Homo sapiens, UniProt P00338); query O=C(O)c1cc(-c2ccc(CNCc3ccc([N+](=O)[O-])cc3)o2)ccc1O
Output line: 5.10

Input line: Retrieve pIC50 on L-lactate dehydrogenase A chain (Homo sapiens, UniProt P00338); query N.O=C(O)c1cc(-c2ccc(CNc3ccc([N+](=O)[O-])cc3)o2)ccc1O
Output line: 5.82

Input line: Retrieve pIC50 on L-lactate dehydrogenase A chain (Homo sapiens, UniProt P00338); query CCN(CC)CC.O=C(O)c1cc(-c2ccc(CN(Cc3ccccc3)Cc3ccco3)o2)ccc1O
Output line: 5.64

Input line: Retrieve pIC50 on L-lactate dehydrogenase A chain (Homo sapiens, UniProt P00338); query N.N.O=C(O)c1cc(-c2ccc(CN(Cc3ccccc3)Cc3ccc(-c4ccc(O)c(C(=O)O)c4)o3)o2)ccc1O
Output line: 6.40

Input line: Retrieve pIC50 on L-lactate dehydrogenase A chain (Homo sapiens, UniProt P00338); query N.O=C(O)c1cc(-c2ccc(CNCc3ccccc3)o2)ccc1O
Output line: 5.60

---

- test target: 2-Hydroxyacid oxidase 1 (Homo sapiens, UniProt Q9UJM8)
- Sequence (Q9UJM8 whole entry): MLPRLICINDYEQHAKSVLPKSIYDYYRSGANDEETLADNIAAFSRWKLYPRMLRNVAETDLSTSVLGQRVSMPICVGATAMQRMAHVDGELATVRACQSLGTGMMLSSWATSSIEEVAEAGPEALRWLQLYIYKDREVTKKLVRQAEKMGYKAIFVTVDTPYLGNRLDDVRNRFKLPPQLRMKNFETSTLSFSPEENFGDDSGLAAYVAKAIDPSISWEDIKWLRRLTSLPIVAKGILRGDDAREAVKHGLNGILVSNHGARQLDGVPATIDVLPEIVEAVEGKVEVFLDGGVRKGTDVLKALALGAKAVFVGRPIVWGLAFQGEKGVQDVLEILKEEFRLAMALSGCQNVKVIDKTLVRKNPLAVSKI
- measurement description: Inhibition of N-terminal His-tagged human recombinant glycolate oxidase expressed in Escherichia coli BL21 (DE3) cells using glycolate as substrate preincubated for 10 mins followed by substrate addition and measured after 10 mins by Amplex red and horseradish peroxidase based fluorescence assay
quantity measured: log10 IC50 (log10 of the value in µM)
Plainly stated, the numbers are log10 of IC50 given in µM.

Input line: Fill in reported log10 IC50 for this entry: C#CCN(Cc1ccc(-c2ccc(O)c(C(=O)O)c2)o1)Cc1ccc(-c2ccc(O)c(C(=O)O)c2)o1.N.N
Output line: 0.30

Input line: Fill in reported log10 IC50 for this entry: N.O=C(O)c1cc(-c2ccc(CNc3ccc(Br)cc3)o2)ccc1O
Output line: 0.62

Input line: Fill in reported log10 IC50 for this entry: N.N.O=C(O)c1cc(-c2ccc(CN(Cc3ccccc3)Cc3ccc(-c4ccc(O)c(C(=O)O)c4)o3)o2)ccc1O
Output line: 0.18

Input line: Fill in reported log10 IC50 for this entry: CCN(CC)CC.O=C(O)c1cc(-c2ccc(CN(Cc3ccccc3)Cc3ccco3)o2)ccc1O
Output line: 1.23

Input line: Fill in reported log10 IC50 for this entry: C#CCCCC(=O)Nc1ccc(C(=O)c2ccc(NCc3ccc(-c4ccc(O)c(C(=O)O)c4)o3)cc2)cc1.N
Output line: 0.38

Input line: Fill in reported log10 IC50 for this entry: N.O=C(O)c1cc(-c2ccc(CNc3ccc([N+](=O)[O-])cc3)o2)ccc1O
Output line: 1.01

---

- test target: 2-Hydroxyacid oxidase 1 (Homo sapiens)
- measurement description: Non-competitive mixed inhibition of N-terminal His-tagged human recombinant glycolate oxidase expressed in Escherichia coli BL21 (DE3) cells assessed as inhibition constant using varying concentration of glycolate as substrate measured every 60 sec for 15 mins by Amplex red and horseradish peroxidase based fluorescence assay
For each entry below, report its pKi value.
FYI, pKi means -log10 of a concentration in mol per litre.

Input line: Fill in reported pKi for this entry: N.N.O=C(O)c1cc(-c2ccc(CN(Cc3ccccc3)Cc3ccc(-c4ccc(O)c(C(=O)O)c4)o3)o2)ccc1O
Output line: 5.64

Input line: Fill in reported pKi for this entry: O=Cc1ccc(-c2ccc(O)c(C(=O)O)c2)o1
Output line: 4.74

Input line: Fill in reported pKi for this entry: N.O=C(O)c1cc(-c2ccc(CNc3ccc(Br)cc3)o2)ccc1O
Output line: 5.96

---

- measurement description: Inhibition of GO/LDHA in hyperoxaluric-primary hepatocyte isolated from Agxt1 knockdown PH1 C57BL/6 mouse measured at 24 hrs in the presence of 5 mM glycolate
- Type: cell-based
quantity measured: EC50
In your response, put the unit directly after the numeric value.

Input line: Fill in reported EC50 for this entry: N.O=C(O)c1cc(-c2ccc(CNc3ccc([N+](=O)[O-])cc3)o2)ccc1O
Output line: 600 nM

Input line: Fill in reported EC50 for this entry: O=Cc1ccc(-c2ccc(O)c(C(=O)O)c2)o1
Output line: 3500 nM

Input line: Fill in reported EC50 for this entry: C#CCNCc1ccc(-c2ccc(O)c(C(=O)O)c2)o1.N
Output line: 4000 nM

Input line: Fill in reported EC50 for this entry: CCN(CC)CC.O=C(O)c1cc(-c2ccc(CN(Cc3ccccc3)Cc3ccco3)o2)ccc1O
Output line: 500 nM

---

- test target: L-lactate dehydrogenase B chain (Homo sapiens)
- Sequence (P07195 whole entry): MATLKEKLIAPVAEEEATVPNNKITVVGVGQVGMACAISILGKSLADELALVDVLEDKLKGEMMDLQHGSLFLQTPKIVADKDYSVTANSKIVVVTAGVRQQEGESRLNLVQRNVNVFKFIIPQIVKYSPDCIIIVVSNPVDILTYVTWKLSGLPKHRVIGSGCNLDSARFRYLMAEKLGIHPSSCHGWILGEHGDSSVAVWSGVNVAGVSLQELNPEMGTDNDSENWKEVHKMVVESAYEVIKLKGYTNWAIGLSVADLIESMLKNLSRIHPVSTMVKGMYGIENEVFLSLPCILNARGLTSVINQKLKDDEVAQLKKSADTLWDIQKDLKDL
- measurement description: Non-competitive inhibition of human recombinant LDHB assessed as inhibition constant using varying concentration of pyruvate as substrate preincubated for 10 mins followed by substrate addition and measured every 60 sec for 10 mins in the presence of NADH by fluorescence assay
quantity measured: Ki (µM)
Form entry: value (µM) — number only.

Input line: Fill in reported Ki for this entry: N.N.O=C(O)c1cc(-c2ccc(CN(Cc3ccccc3)Cc3ccc(-c4ccc(O)c(C(=O)O)c4)o3)o2)ccc1O
Output line: 0.7

Input line: Fill in reported Ki for this entry: O=Cc1ccc(-c2ccc(O)c(C(=O)O)c2)o1
Output line: 12.9

Input line: Fill in reported Ki for this entry: C#CCNCc1ccc(-c2ccc(O)c(C(=O)O)c2)o1.N
Output line: 5.1

---

- test target: L-lactate dehydrogenase A chain (Homo sapiens, UniProt P00338)
- measurement description: Non-competitive inhibition of human recombinant LDHA assessed as inhibition constant using varying concentration of pyruvate as substrate preincubated for 10 mins followed by substrate addition and measured every 60 sec for 10 mins in the presence of NADH by fluorescence assay
quantity measured: Ki (µM)
Form entry: value (µM) — number only.

Input line: Retrieve Ki on L-lactate dehydrogenase A chain (Homo sapiens, UniProt P00338); query N.O=C(O)c1cc(-c2ccc(CNc3ccc(Br)cc3)o2)ccc1O
Output line: 0.9

Input line: Retrieve Ki on L-lactate dehydrogenase A chain (Homo sapiens, UniProt P00338); query N.N.O=C(O)c1cc(-c2ccc(CN(Cc3ccccc3)Cc3ccc(-c4ccc(O)c(C(=O)O)c4)o3)o2)ccc1O
Output line: 0.09

Input line: Retrieve Ki on L-lactate dehydrogenase A chain (Homo sapiens, UniProt P00338); query O=Cc1ccc(-c2ccc(O)c(C(=O)O)c2)o1
Output line: 1.4

---

- test target: L-lactate dehydrogenase B chain (Homo sapiens)
- measurement description: Inhibition of human recombinant LDHB using pyruvate as substrate preincubated for 10 mins followed by substrate addition and measured every 60 sec for 10 mins in the presence of NADH by fluorescence assay
quantity measured: pIC50
FYI, pIC50 means -log10 of a concentration in mol per litre.

Input line: Fill in reported pIC50 for this entry: CCN(CC)CC.O=C(O)c1cc(-c2ccc(CN(Cc3ccccc3)Cc3ccco3)o2)ccc1O
Output line: 5.37

Input line: Fill in reported pIC50 for this entry: O=Cc1ccc(-c2ccc(O)c(C(=O)O)c2)o1
Output line: 4.54

Input line: Fill in reported pIC50 for this entry: C#CCN(Cc1ccc(-c2ccc(O)c(C(=O)O)c2)o1)Cc1ccc(-c2ccc(O)c(C(=O)O)c2)o1.N.N
Output line: 5.64

Input line: Fill in reported pIC50 for this entry: N.N.O=C(O)c1cc(-c2ccc(CN(Cc3ccccc3)Cc3ccc(-c4ccc(O)c(C(=O)O)c4)o3)o2)ccc1O
Output line: 6.70

Input line: Fill in reported pIC50 for this entry: C#CCNCc1ccc(-c2ccc(O)c(C(=O)O)c2)o1.N
Output line: 4.93

Input line: Fill in reported pIC50 for this entry: N.O=C(O)c1cc(-c2ccc(CNc3ccc([N+](=O)[O-])cc3)o2)ccc1O
Output line: 5.23

Input line: Fill in reported pIC50 for this entry: N.O=C(O)c1cc(-c2ccc(CNc3ccc(Br)cc3)o2)ccc1O
Output line: 5.96

Input line: Fill in reported pIC50 for this entry: N.O=C(O)c1cc(-c2ccc(CNCc3ccccc3)o2)ccc1O
Output line: 5.48

Input line: Fill in reported pIC50 for this entry: C#CCCCC(=O)Nc1ccc(C(=O)c2ccc(NCc3ccc(-c4ccc(O)c(C(=O)O)c4)o3)cc2)cc1.N
Output line: 6.52

Reference for the values: ChEMBL document CHEMBL5120856
